tested on: human gustatory system; test: Measurement of sweetness activity using the human gustatory system (threshold of initially sensing sweetness); format: in vivo; settings: rounded values of the text; same mass
Measurement type: times as sweet as sucrose in the same mass

K4R_H30R_E35D_E40D: brazzein multiple variant, 4th Lys to Arg in tertiary variant H30R_E35D_E40D, SEQ ID NO. 19 (DKCRKVYENYPVSKCQLANQCNYDCKLAKRARSGDCFYDDKRNLQCICDYCEY; Brazzein Variant) = 1,700,000 times

// next entry
In: # return recorded times as sweet as sucrose in the same mass for entry K4D_H30R_E35D_E40D: brazzein multiple variant, 4th Lys to Asp in tertiary variant H30R_E35D_E40D, SEQ ID NO. 17 (DKCDKVYENYPVSKCQLANQCNYDCKLAKRARSGDCFYDDKRNLQCICDYCEY; Brazzein Variant)
Out: 1,300,000 times

---

system: human gustatory system; test: Measurement of sweetness activity using the human gustatory system (threshold of initially sensing sweetness); type: in vivo; details: rounded values of the text; same mass
Measurement type: times as sweet as sucrose in the same mass

K4R_H30R_E35D_E40R: brazzein multiple variant, 4th Lys to Arg in tertiary variant H30R_E35D_E40R, SEQ ID NO. 22 (DKCRKVYENYPVSKCQLANQCNYDCKLAKRARSGDCFYDRKRNLQCICDYCEY; Brazzein Variant) = 2,000,000 times
K4E_H30R_E35D_E40K: brazzein multiple variant, 4th Lys to Glu in tertiary variant H30R_E35D_E40K, SEQ ID NO. 12 (DKCEKVYENYPVSKCQLANQCNYDCKLAKRARSGDCFYDKKRNLQCICDYCEY; Brazzein Variant) = 1,700,000 times
K4E_H30R_E35D_E40R: brazzein multiple variant, 4th Lys to Glu in tertiary variant H30R_E35D_E40R, SEQ ID NO. 21 (DKCEKVYENYPVSKCQLANQCNYDCKLAKRARSGDCFYDRKRNLQCICDYCEY; Brazzein Variant) = 1,800,000 times
K4D_H30R_E35D_E40K: brazzein multiple variant, 4th Lys to Asp in tertiary variant H30R_E35D_E40K, SEQ ID NO. 11 (DKCDKVYENYPVSKCQLANQCNYDCKLAKRARSGDCFYDKKRNLQCICDYCEY; Brazzein Variant) = 1,500,000 times
K4R_H30R_E35D_E40A: brazzein multiple variant, 4th Lys to Arg in tertiary variant H30R_E35D_E40A, SEQ ID NO. 16 (DKCRKVYENYPVSKCQLANQCNYDCKLAKRARSGDCFYDAKRNLQCICDYCEY; Brazzein Variant) = 2,900,000 times

In: # return recorded times as sweet as sucrose in the same mass for entry K4R_H30R_E35D_E40K: brazzein multiple variant, 4th Lys to Arg in tertiary variant H30R_E35D_E40K, SEQ ID NO. 13 (DKCRKVYENYPVSKCQLANQCNYDCKLAKRARSGDCFYDKKRNLQCICDYCEY; Brazzein Variant)
Out: 2,000,000 times

In: # return recorded times as sweet as sucrose in the same mass for entry K4D_H30R_E35D_E40R: brazzein multiple variant, 4th Lys to Asp in tertiary variant H30R_E35D_E40R, SEQ ID NO. 20 (DKCDKVYENYPVSKCQLANQCNYDCKLAKRARSGDCFYDRKRNLQCICDYCEY; Brazzein Variant)
Out: 1,800,000 times

In: # return recorded times as sweet as sucrose in the same mass for entry K4E_H30R_E35D_E40D: brazzein multiple variant, 4th Lys to Glu in tertiary variant H30R_E35D_E40D, SEQ ID NO. 18 (DKCEKVYENYPVSKCQLANQCNYDCKLAKRARSGDCFYDDKRNLQCICDYCEY; Brazzein Variant)
Out: 1,250,000 times

In: # return recorded times as sweet as sucrose in the same mass for entry K4E_H30R_E35D_E40A: brazzein multiple variant, 4th Lys to Glu in tertiary variant H30R_E35D_E40A, SEQ ID NO. 15 (DKCEKVYENYPVSKCQLANQCNYDCKLAKRARSGDCFYDAKRNLQCICDYCEY; Brazzein Variant)
Out: 2,000,000 times

In: # return recorded times as sweet as sucrose in the same mass for entry K4D_H30R_E35D_E40A: brazzein multiple variant, 4th Lys to Asp in tertiary variant H30R_E35D_E40A, SEQ ID NO. 14 (DKCDKVYENYPVSKCQLANQCNYDCKLAKRARSGDCFYDAKRNLQCICDYCEY; Brazzein Variant)
Out: 2,000,000 times

Source: patent US9826773B2
